# EXPERIMENTAL SYSTEM: T1, extracellular binding domain of human SIRPγ (plate-coated) (human, UniProt Q9P1W8 29-360)
# T1 construct: also called hSIRPγ
# T1 sequence (Q9P1W8 29-360 limits assumed): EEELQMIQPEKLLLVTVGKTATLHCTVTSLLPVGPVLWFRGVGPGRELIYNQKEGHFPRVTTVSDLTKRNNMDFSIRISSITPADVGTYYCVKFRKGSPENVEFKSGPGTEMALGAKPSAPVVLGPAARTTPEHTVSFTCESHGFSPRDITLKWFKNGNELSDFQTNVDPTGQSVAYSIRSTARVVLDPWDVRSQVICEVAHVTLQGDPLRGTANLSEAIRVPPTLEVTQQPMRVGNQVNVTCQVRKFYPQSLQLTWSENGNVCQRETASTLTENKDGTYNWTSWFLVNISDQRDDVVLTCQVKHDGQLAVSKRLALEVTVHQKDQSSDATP
# ASSAY: ELISA, coated SIRP ECD (2 µg/mL), anti-human IgG, luminescence
PARAMETER: EC50 (read off the curve)

Worked examples, 3 binders total:
• Antibody 82 (antibody, V domains shown) VH: QVQLVQSGAEVKKPGASVKVSCKASGHTFNNNYIHWVRQAPGQGLEWMGIINPSGGSTSYAQKFQGRVTMTRDTSTSTVYMELSSLRSEDTAVYYCARQIQDYGYYYYGMDVWGQGTTVTVSS VL: EIVMTQSPATLSVSPGERATLSCRASQSVSKYLAWYQQKPGQAPRLLIYAISARAAGIPARFSGSGSGTEFTLTISSLQSEDFAVYYCQQYYSSPPTFGQGTKVEIK = ~0.01 µg/mL
• Antibody 55 (antibody, V domains shown) VH: EVQLLESGGGLVQPGGSLRLSCAASGFTFSNSDMNWVRQAPGKGLEWVSYISSSGNTIYYADSVKGRFTISRDNSKNTLYLQMNSLRAEDTAVYYCARSNWNYPLDYYYMDVWGKGTTVTVSS VL: DIVMTQSPLSLPVTPGEPASISCRSSQSLLHSNGYNYLDWYLQKPGQSPQLLIYAASSLQSGVPDRFSGSGSGTDFTLKISRVEAEDVGVYYCMQGTHWPPTFGQGTKVEIK = ~0.7 µg/mL
• Antibody 56 (antibody, V domains shown) VH: QVQLVQSGAEVKKPGASVKVSCKASGYTFTSYYMHWVRQAPGQGLEWMGWVDPNNGDTGYAQKFQGRVTMTRDTSTSTVYMELSSLRSEDTAVYYCARDNWGSLDVWGKGTTVTVSS VL: DIVMTQSPLSLPVTPGEPASISCRSSQSLLHSNGYNYLDWYLQKPGQSPQLLIYAASTLQSGVPDRFSGSGSGTDFTLKISRVEAEDVGVYYCMQGLQTLYSFGQGTKLEIK = ~0.7 µg/mL

// batch mode: one EC50 (read off the curve) value per listed entry
1. Antibody 63 (antibody, V domains shown) VH: QVQLVQSGAEVKKPGASVKVSCKASGYTFTGYYMHWVRQAPGQGLEWMGIINPSGGSTNYAQKFQGRVTMTRDTSTSTVYMELSSLRSEDTAVYYCARGPIGYGMDVWGQGTLVTVSS VL: DIQMTQSPSSLSASVGDRVTITCRASQGIGNDLGWYQQKPGKAPKLLIYAASNLETGVPSRFSGSGSGTDFTLTISSLQPEDFATYYCLQHHSYPFTFGQGTKLEIK
2. Antibody 70 (antibody, V domains shown) VH: QVQLVQSGAEVKKPGASVKVSCKASGYTFSNYYMHWVRQAPGQGLEWMGWMNPNSGNTGYAQKFQGRVTMTRDTSTSTVYMELSSLRSEDTAVYYCARASMYSSSGFDYWGQGTLVTVSS VL: DIVMTQSPLSLPVTPGEPASISCRSSQSLLHSNGYNYLDWYLQKPGQSPQLLIYLASTRAPGVPDRFSGSGSGTDFTLKISRVEAEDVGVYYCMQGSHWPPSFGQGTRLEIK

["~0.8 µg/mL", "~0.03 µg/mL"]
